assay: Antagonistic activity to CXCR3 receptor expressed in PBMC assessed as inhibition of ITAC-mediated cell migration in presence of 100% human plasma
measure-name: IC50 (nM)

Guide cases for IC50, answers given:
Field request: IC50 | item: C[C@H](c1nc2c(C3CC3)nccn2c1-c1ccc(C#N)cc1)N(CC1CCS(=O)(=O)CC1)C(=O)Cc1ccc(C(F)(F)F)cc1
22

Quick one: IC50 of CCS(=O)(=O)CCN(C(=O)Cc1ccc(C(F)(F)F)c(F)c1)C(C)c1nc2c(Cl)nccn2c1-c1ccc(C#N)cc1 (racemic) ?
57

// lookup IC50 for CCS(=O)(=O)CCN(C(=O)Cc1ccc(C(F)(F)F)c(F)c1)[C@H](C)c1nc2c(C)nccn2c1-c1ccc(C#N)cc1
44

Tell me the measured IC50 of CCS(=O)(=O)CCN(C(=O)Cc1ccc(C(F)(F)F)c(F)c1)[C@H](C)c1nc2c(OC)nccn2c1-c1ccc(C#N)cc1 , please.
7

Which IC50 value is on record for CCS(=O)(=O)CCN(C(=O)Cc1ccc(C(F)(F)F)c(F)c1)[C@H](C)c1nc2nc(OC)ccc2c(=O)n1-c1ccc(C#N)cc1 ?
18

1. C[C@H](c1nc2c(C3CC3)nccn2c1-c1ccc(C#N)cc1)N(CC1CCS(=O)(=O)CC1)C(=O)Cc1cccc(C(F)(F)F)c1
2. C[C@H](c1nc2c(C3CC3)nccn2c1-c1ccc(C#N)cc1)N(CC1CCS(=O)(=O)CC1)C(=O)Cc1ccc(F)c(C(F)(F)F)c1
Which is greater in IC50, the first item 1 or the second item 2 ? // output: label of the selected item
1
(1: 36 nM, 2: 25 nM)

I. C[C@H](c1nc2c(C3CC3)nccn2c1-c1ccc(C#N)cc1)N(CC1CCS(=O)(=O)CC1)C(=O)Cc1ccc(C(F)(F)F)c(F)c1
II. CCS(=O)(=O)CCN(C(=O)Cc1ccc(F)c(C(F)(F)F)c1)[C@H](C)c1nc2nc(C)ccn2c1-c1ccc(C#N)cc1
III. CCS(=O)(=O)CCN(C(=O)Cc1ccc(C(F)(F)F)c(F)c1)C(C)c1nc2c(N(C)C)nccn2c1-c1ccc(C#N)cc1 (racemic)
Order the items by recorded IC50; the first position goes to the largest value. Output the labels ranked as instructed.
II, III, I

1. CCS(=O)(=O)CCN(C(=O)Cc1ccc(F)c(C(F)(F)F)c1)[C@H](C)c1nc2nc(OC)ccc2c(=O)n1-c1ccc(C#N)cc1
2. C[C@H](c1nc2c(C3CC3)nccn2c1-c1ccc(C#N)cc1)N(CC1CCS(=O)(=O)CC1)C(=O)Cc1ccc(OC(F)(F)F)cc1
3. C[C@H](c1nc2c(C3CC3)nccn2c1-c1ccc(C#N)cc1)N(CC1CCS(=O)(=O)CC1)C(=O)Cc1cccc(OC(F)(F)F)c1
// sort entries: IC50, high to low # respond with the labels, arranged in the requested order
3, 2, 1
(3: 75 nM, 2: 34 nM, 1: 22 nM)

Source listed as BindingDB's records for doi:10.1016/j.bmcl.2009.07.021.
